assay target: Troponin I, cardiac muscle (Homo sapiens) + Troponin T, cardiac muscle (Homo sapiens) + Troponin C, slow skeletal and cardiac muscles (Homo sapiens) (UniProt P19429+P45379+P63316)
protocol notes: cardiac RTF calcium sensitivity activators, confirmation, biochemical, IANBD-TnC fluorescence, triplicate (AID 504383);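 further: 0% = DMSO at 0.472 mM calcium and 100% = DMSO at 2.9 mM calcium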
experimental setup: IANBD-labeled cardiac RTF, Ca2+ sensitivity fluorescence; at 7.2 µM; active compounds read high; scaled from EC20 to saturating calcium; tested at EC20 calcium, 0.472 mM
In all, about 2,500 compounds went through this assay and about 1,200 (48%) were called active. So high a share suggests a set chosen from earlier hits. Some of the results follow.
assay endpoint: activation (%)
Give bare numbers, in %.

Previously resolved entries follow.
Cn1c(=O)c2c(nc(NCCNC(=O)c3ccco3)n2Cc2ccccc2Cl)n(C)c1=O : 7.43
CCSC1=N/C(=C\C=C2/Oc3ccccc3N2CC)C(=O)S1 : 31.9
Cn1c(-c2ccc(C=O)s2)nc2c3ccccc3c3ccccc3c21 : 25.8
CC(C)(CN1CCc2ccccc2C1)NS(=O)(=O)c1ccc(Cl)cc1 : 2.24
Cn1c(CCNC(=O)c2ccco2)nc2ccccc21 : 919

Please state, for each entry, its recorded activation.
1. CCOC(=O)C(C#N)C(c1cccnc1)c1c(C)[nH][nH]c1=O (stereo not drawn)
2. Cc1cc2oc3ccc(NCCCn4ccnc4)cc3c(=O)c2cc1C
3. CCCN1C(=O)/C(=C\C=C2\N(CC)c3ccccc3C2(C)C)SC1=S

1. 5.64
2. 1.5
3. 10.1

Provide reported activation for each item, in the same order as listed.
1. CCCOc1ccc(C2C(C(=O)c3ccc(C)o3)=C(O)C(=O)N2CCCn2ccnc2)cc1 (stereo not drawn)
2. Cc1ncoc1C(=O)N1CCc2c([nH]c3ccccc23)C1C(C)(C)C (stereo not drawn)

64.1
2.53

Each compound below has a recorded value; state its activation.
1. O=C(Cn1c(C(F)(F)F)nc2ccccc21)NCCN1CCCC1
2. CCCN1C(=O)/C(=C/C=C2\N(CC)c3ccccc3C2(C)C)SC1=S
3. O=C(/C=C/c1nc2ccccc2s1)N1CCCCCC1
4. Cc1nc2c(C#N)cnn2c2c1CCN(Cc1ccccc1)N2C
5. CCN1/C(=C/C=C/c2oc3ccc(-c4ccccc4)cc3[n+]2CC)Oc2ccc(-c3ccccc3)cc21
6. O=S(=O)(c1ccccc1Cl)N1CCC(Cc2ccccc2)CC1
7. O=C(c1ccccc1)N1CCCCC1
8. CC1(C)CC(=O)C2=C(C1)OC(N)=C(C#N)C21CCN(Cc2ccccc2)CC1

[-3.29, 3.85, 35, 389, 6.07, 10.4, 8.78, 12.4]
